Test: protein stability index of a GFP-peptide fusion (GPS, HEK-293T) (PSI 1-6); higher = more stable;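 also: 24-mer peptide tiles fused after GFP, lentivirally expressed, FACS-sorted into six equal bins by GFP/DsRed ratio, decoded by Illumina sequencing, PSI is the read-weighted mean bin number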
Details: treatment: DMSO; c terminus: a fixed tail appended
Could you please report measured protein stability index for the items listed next?
Keep it simple and answer with nothing but the number.

# query: protein stability index of entry EEAAMQKCLVTEAQTLLRLSGVQR [RSAD1]
3.51

# query: protein stability index of entry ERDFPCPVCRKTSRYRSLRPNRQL [TRIM39]
2.93

# query: protein stability index of entry TNDVETARCTAGTLHNLSHHREGL [CTNNB1]
3.89

# query: protein stability index of entry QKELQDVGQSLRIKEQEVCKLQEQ [SASS6]
4.88

# query: protein stability index of entry RTILLSVISLLNEPNTFSPANVDA [CDC34]
2.77

# query: protein stability index of entry EEVTRLGAQVKELEEKCQQPASEL [TRIM15]
5.5

# query: protein stability index of entry SVIKDHHTRSITSCCFDPDSQRVA [WDR88]
3.35

# query: protein stability index of entry IQRPANAIKEMIENCLDAKSTSIQ [MLH1]
4.16

# query: protein stability index of entry NILFYVVGLRNTLTRIRKWIEHSK [GLT8D2]
2.59

# query: protein stability index of entry LYRQHQAQIDQYVGLVTNQLSHIK [RTN2]
2.08

# query: protein stability index of entry KERLKPAHIHLQQLTCFSITCSST [KRT34]
2.1

# query: protein stability index of entry LQRDFLKQRPTKLKSLIRLVKHWY [OAS1]
3.3

# query: protein stability index of entry FLLVQRFGELMRKLWNPRNFKAHV [USP39]
2.47

# query: protein stability index of entry MLFFLPPGQHLSDYSQLNESTTKE [FBXO34]
2.6

# query: protein stability index of entry KAGQPESRALALFDIQKIMQEKNP [ZNF8]
4.06

# query: protein stability index of entry SMRKIVATWMLEVCEEQKCEEEVF [CCND1]
2.3

# query: protein stability index of entry GGTPIRGALQIEQSEESDQGKYEC [PTPRD]
5.57

# query: protein stability index of entry KKRLQELALALKKCKPSLPAEAEG [TMEM120A]
3.62

# query: protein stability index of entry GAGAGSSLLDVAEPGGPGWLPESD [SMAD6]
5.23

# query: protein stability index of entry ATPGEYSVNICGMNEHPVCSRTWT [SPAG8]
2.44

# query: protein stability index of entry VELLLSHADCDRRSRIEALELLGA [FEM1B]
2.7

# query: protein stability index of entry FGHLSVFSTSKWNHLLHHFVIGHL [FADS1]
2.58

# query: protein stability index of entry DWASNKVMFKIGDLGHVTRISSPQ [WEE1]
2.53

# query: protein stability index of entry QLSATGQKLYVRLFQRKLSWIKMT [FAN1]
2.3

# query: protein stability index of entry LCEEFRNRNQRIVQLIQDTRIHIL [CPN1]
2.25

# query: protein stability index of entry PDEEPMHYGNIMYDRRVIRGNTYA [RSPH3]
3.5

# query: protein stability index of entry NATWLVNSAAHLFGYRPYDKNISP [SCD]
2.4
